activation: recorded values
assay: Wnt/beta-catenin pathway activators, primary screen, cell-based, plate reader, single point (AID 743398); details: Wnt/beta-catenin reporter cell assay, activator, at 9.35 µM, active compounds read high;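 note: 0% = neutral control wells and 100% = positive control wells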
Among all 300,000 compounds or so, about 3,600 (1.2%) were called active. The sample holds actives, similar compounds and a random draw of the others, so the mix is not that of the screen.

molecule	activation [%]
O=C(NC1CCCCC1)C(c1cc2ccccc2o1)n1c(=O)c(-c2ccco2)nc2ccccc21 (stereo not given)	2.44
NS(=O)(=O)c1cccc(NC(=O)CN2CCCc3ccccc32)c1	-1.12
CC1Cc2ccccc2N1CC(=O)Nc1ccc(S(N)(=O)=O)cc1 (stereo not given)	39
CCN(CC)CCN(C)C(c1ccnc2ccccc12)c1nnnn1-c1ccc2c(c1)OCCO2 (stereo not given)	-2.38
CCCCc1c(-c2ccc(Br)cc2)ncn1CCc1ccccc1OC	-12.1

---

test: Wnt/beta-catenin pathway activators, primary screen, cell-based, plate reader, single point (AID 743398); conditions: Wnt/beta-catenin reporter cell assay, activator, at 9.35 µM, active compounds read high;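 note: 0% = neutral control wells and 100% = positive control wells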
Out of some 300,000 compounds screened, about 3,600 (1.2%) were called active. The list comes from a sample in which actives are over-represented; it also holds close analogues and randomly drawn compounds.

compound	activation, %
c1ccc2c(c1)nnn2-c1ccncc1	-1.47
Cc1cc(N2CCN(C(=O)OC(C)(C)C)C[C@H]2C)ccc1N1CCN(Cc2ccccc2)[C@H](C)C1	-18.5
COc1ccc2oc(-c3cccc(NC(=O)CSc4ccc(Cl)cc4)c3)nc2c1	22.7
CCCC(=O)N1c2ccc(-c3csc(N)n3)cc2CC1C (configuration not stated)	56.5
CCOC(=O)[C@H]1Nc2ccc(Cl)cc2[C@@H]2[C@H]1C1CC(c3ccccc31)N2C(=O)OCc1ccccc1 (some centres not stated)	-1.09
COc1cccc(-c2nc3cc(C)ccc3o2)c1	40.6
COc1cc(/C=C2/C(=O)ON=C2C)ccc1OCc1ccccc1F	48.1
COc1cc(Cl)ccc1OCc1cc(C(=O)N2CC[C@@H]3CCCC[C@H]3C2)no1	18.3
Cc1cc(O)c(NC(=O)c2ccc(C)c([N+](=O)[O-])c2)cc1C	4.77
O=C(c1cc(COc2cccc(C(F)(F)F)c2)on1)N1CCSCC1	1.55
O=S1(=O)c2c(cccc2N2CCCC2)O[C@H](COCc2ccccc2)CN1C1CC1	-2.59
COc1ccc(-c2ccc(CN3C(C(C)C)C(=O)N(Cc4cn(CC5CCCCC5)nn4)CCS3(=O)=O)cc2)cn1 (configuration not stated)	-0.388
COc1ccccc1-c1cc(C(=O)N2CCCCC2)no1	0.293
CCC(=O)Nc1sc(C(=O)Nc2ccccc2)c(C)c1C(=O)OC	68.1
Cc1ccc(NC(=O)CN(C)CC(=O)Nc2cccc(F)c2)cc1[N+](=O)[O-]	-4.16
C=CCOc1ccc(/C=C2/C(=O)ON=C2C)cc1OCC	-0.78
COc1ccc(OCc2cc(C(=O)N3CCCC3)no2)c2ccccc12	43
O=C(c1cc(-c2ccc(O)cc2)on1)N1CCOCC1	19.9
O=C(O)Cn1cnc2c(NCc3ccccc3)ncnc21	-0.517
CCn1nc(C(=O)OCC(=O)N2c3ccccc3CC2C)c2ccccc2c1=O (configuration not stated)	-0.818
O=C(c1cc(COc2ccc(F)cc2F)on1)N1CCOCC1	12.4
Cc1ccc(NC(=O)c2sccc2C)cc1[N+](=O)[O-]	44.6
